Test system: cbb promoter
Format: cell-based, Ralstonia eutropha
Conditions: Table 9, chemoautotrophic growth conditions
MEASURED_PARAMETER: Chemoautotrophic β-galactosidase activity

{"MOLECULE": "G125S/V265M (protein) MSSFLRALTLRQLQIFVTVARHASFVRAAEELHLTQPAVSMQVKQLESVVGMALFERVKGQLTLTEPGDRLLHHASRILGEVKDAEEGLQAVKDVEQGSITIGLISTSKYFAPKLLAGFTALHPSVDLRIAEGNRETLLRLLQDNAIDLALMGRPPRELDAVSEPIAAHPHVLVASPRHPLHDAKGFDLQELRHETFLLREPGSGTRTVAEYMFRDHLFTPAKVITLGSNETIKQAVMAGMGISLLSLHTLGLELRTGEIGLLDMAGTPIERIWHVAHMSSKRLSPASESCRAYLLEHTAEFLGREYGGLMPGRRVA", "RESULT_VALUE": "6770 nmol/min/mg of protein"}
{"MOLECULE": "D144N (protein) MSSFLRALTLRQLQIFVTVARHASFVRAAEELHLTQPAVSMQVKQLESVVGMALFERVKGQLTLTEPGDRLLHHASRILGEVKDAEEGLQAVKDVEQGSITIGLISTSKYFAPKLLAGFTALHPGVDLRIAEGNRETLLRLLQNNAIDLALMGRPPRELDAVSEPIAAHPHVLVASPRHPLHDAKGFDLQELRHETFLLREPGSGTRTVAEYMFRDHLFTPAKVITLGSNETIKQAVMAGMGISLLSLHTLGLELRTGEIGLLDVAGTPIERIWHVAHMSSKRLSPASESCRAYLLEHTAEFLGREYGGLMPGRRVA", "RESULT_VALUE": "6932 nmol/min/mg of protein"}
